# assay-target: P2Y purinoceptor 12 (Homo sapiens, UniProt Q9H244)
# Sequence (Q9H244 whole entry): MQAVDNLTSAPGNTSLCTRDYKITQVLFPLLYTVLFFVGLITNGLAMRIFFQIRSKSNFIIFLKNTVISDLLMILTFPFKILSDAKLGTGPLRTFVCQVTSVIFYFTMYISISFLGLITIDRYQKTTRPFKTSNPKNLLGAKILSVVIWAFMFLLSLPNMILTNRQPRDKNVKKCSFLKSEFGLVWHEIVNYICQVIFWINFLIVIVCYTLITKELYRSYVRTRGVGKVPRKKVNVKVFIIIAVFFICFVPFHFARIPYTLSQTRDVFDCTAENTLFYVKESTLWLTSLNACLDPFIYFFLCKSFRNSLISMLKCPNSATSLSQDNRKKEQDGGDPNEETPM
# test-description: Ratio of compound IC50 to thienopyrimidine IC50 for P2Y12 receptor in human platelet rich plasma assessed as inhibition of ADP-induced platelet aggregation by light transmission aggregometry
Listed here are compounds together with their documented Ratio IC50.

{"compound-smiles": "CCCCCOC(=O)N1CCN(C(=O)[C@H](CCC(=O)O)NC(=O)c2cc(N3CCC(CCN(C)C)CC3)nc(-c3ccccc3)n2)CC1", "Ratio IC50": 0.1}
{"compound-smiles": "CCCCCOC(=O)N1CCN(C(=O)[C@H](CCC(=O)O)NC(=O)c2cc(N3CCC(CC(=O)N4CCC4)CC3)nc(-c3ccccc3)n2)CC1", "Ratio IC50": 0.2}
{"compound-smiles": "CCCCCOC(=O)N1CCN(C(=O)[C@H](CCC(=O)O)NC(=O)c2nc(-c3ccccc3)cc(N3CCC(C(=O)N(CC)CC)CC3)n2)CC1", "Ratio IC50": 0.4}
{"compound-smiles": "CCCCCOC(=O)N1CCN(C(=O)[C@H](CCC(=O)O)NC(=O)c2cc(N3CCC(N4CCOCC4)CC3)nc(-c3ccccc3)n2)CC1", "Ratio IC50": 0.2}

====

Listed here are molecules together with their documented bioavailability.
# test-description: Oral bioavailability in Sprague-Dawley rat at 5 mg/kg
# Format: ADME, organism-based
# experimental-conditions: in vivo
measured-attribute: bioavailability

{"compound-smiles": "CCCCCOC(=O)N1CCN(C(=O)[C@H](CCC(=O)O)NC(=O)c2cc(N3CCC(CN)CC3)nc(-c3ccccc3)n2)CC1", "assay-result": "1%"}
{"compound-smiles": "CCCCCOC(=O)N1CCN(C(=O)[C@H](CCC(=O)O)NC(=O)c2cc(N3CCC(CNC)CC3)nc(-c3ccccc3)n2)CC1", "assay-result": "2%"}
{"compound-smiles": "CCCCCOC(=O)N1CCN(C(=O)[C@H](CCC(=O)O)NC(=O)c2cc(N3CCC(COC)CC3)nc(-c3ccccc3)n2)CC1", "assay-result": "61%"}
{"compound-smiles": "CCCCCOC(=O)N1CCN(C(=O)[C@H](CCC(=O)O)NC(=O)c2cc(N3CCC(C(=O)N(CC)CC)CC3)nc(-c3ccccc3)n2)CC1", "assay-result": "38%"}
{"compound-smiles": "CCCCCOC(=O)N1CCN(C(=O)[C@H](CCC(=O)O)NC(=O)c2nc(-c3ccccc3)cc(N3CCC(CN)CC3)n2)CC1", "assay-result": "1%"}
{"compound-smiles": "CCCCCOC(=O)N1CCN(C(=O)[C@H](CCC(=O)O)NC(=O)c2cc(N3CCC(C(=O)N4CCCC4)CC3)nc(-c3ccccc3)n2)CC1", "assay-result": "13%"}
{"compound-smiles": "CCCCCOC(=O)N1CCN(C(=O)[C@H](CCC(=O)O)NC(=O)c2cc(N3CCC(CN4CCCC4)CC3)nc(-c3ccccc3)n2)CC1", "assay-result": "1%"}
{"compound-smiles": "CCCCCOC(=O)N1CCN(C(=O)[C@H](CCC(=O)O)NC(=O)c2cc(N3CCC(C(=O)NCC)CC3)nc(-c3ccccc3)n2)CC1", "assay-result": "8%"}
{"compound-smiles": "CCCCOC(=O)N1CCN(C(=O)[C@H](CCC(=O)O)NC(=O)c2cc(N3CCC(C(=O)NCC)CC3)nc(-c3ccccc3)n2)CC1", "assay-result": "7%"}
{"compound-smiles": "CCCCCOC(=O)N1CCN(C(=O)[C@H](CCC(=O)O)NC(=O)c2nc(-c3ccccc3)cc(N3CCC(COC)CC3)n2)CC1", "assay-result": "6%"}
